# maps each entry to its collision cross section in nitrogen
# experiment: collision cross section in nitrogen (drift tube, single-field); higher = larger gas-phase ion size;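 note: chemical standards at 10 µM analysed by drift tube IMS-QTOF MS in about 3.95 torr nitrogen, mean of duplicate injections differing ≤1%, mass error below 10 ppm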
# protocol conditions: ion source: APCI; ion mode: Positive; ion type: [M]+ (permanent cation)
Lab book: enter the figure in Å², no units written.

{"molecule": "CCCCCCCCCCCCCC[P+](CCCC)(CCCC)CCCC [Tributyltetradecylphosphonium chloride]", "assay endpoint": "collision cross section in nitrogen", "quantitative result": 224}

Exercise: Quote collision cross section in nitrogen reported for CN(C[C@@H](CC[N+]12CCC(C3CCCCC3)(CC1)CC2)c1ccc(Cl)c(Cl)c1)C(=O)c1cc(C(F)(F)F)cc(C(F)(F)F)c1 please.
Key: 260.7

Exercise: Note collision cross section in nitrogen for the molecule shown: CN(C)c1ccc(C(=C2C=CC(=[N+](C)C)C=C2)c2ccc(N(C)C)cc2)cc1 [Gentian Violet]
Key: 205

Exercise: Return collision cross section in nitrogen for the following molecule: CCCCCCCCCCCCCC[n+]1ccccc1 [Tetradecylpyridinium bromide]
Key: 185.4

Exercise: In one line, give reported collision cross section in nitrogen of the entry CCCC[P+](CCCC)(CCCC)CCCC [Tetrabutylphosphonium chloride] .
Key: 172.4

Exercise: Please supply the value of reported collision cross section in nitrogen for the item CCCCCCCC[N+](C)(C)Cc1ccccc1 [Benzalkonium chloride C8 (BAC C8)]
Key: 170.1

Exercise: Retrieve collision cross section in nitrogen measured for CCCCCCCCCC[N+](C)(C)CCCCCCCCCC [Didecyldimethylammonium chloride] and print it.
Key: 208.2

Exercise: Indicate its recorded collision cross section in nitrogen; the molecule in question is c1ccc(C[n+]2cccc3ccccc32)cc1 [1-Benzylquinolinium chloride]
Key: 147.6

Exercise: Supply reported collision cross section in nitrogen belonging to this molecule: CCNc1ccc(C(=C2C=CC(=[N+](CC)CC)C=C2)c2ccc(N(CC)CC)cc2)c2ccccc12 [Basic Blue 7]
Key: 241.9

Exercise: Return collision cross section in nitrogen (reported value) for this molecule: CN(C)c1ccc(C(=C2C=CC(=[N+](C)C)C=C2)c2ccccc2)cc1 [Malachite green]
Key: 188.5

----------
Parameter: collision cross section in nitrogen. Scope: all listed entries.
# experiment: collision cross section in nitrogen (drift tube, single-field); higher = larger gas-phase ion size
# protocol conditions: ion type: [M+Na]; ion source: ESI; ion mode: Positive
A number alone suffices; assume Å².

{"molecule": "CCCCc1nc(Cl)c(CO)n1Cc1ccc(-c2ccccc2-c2nnn[nH]2)cc1", "collision cross section in nitrogen, Å²": 204.9}
{"molecule": "COc1ccc(OC(F)(F)F)cc1CN[C@H]1CCCN[C@H]1c1ccccc1", "collision cross section in nitrogen, Å²": 190.7}
{"molecule": "CC1(C)[C@@H](O[C@H]2O[C@H](C(=O)O)[C@@H](O)[C@H](O)[C@H]2O[C@@H]2O[C@H](C(=O)O)[C@@H](O)[C@H](O)[C@H]2O)CC[C@]2(C)[C@H]3C(=O)C=C4[C@@H]5C[C@@](C)(C(=O)O)CC[C@]5(C)CC[C@@]4(C)[C@]3(C)CC[C@@H]12", "collision cross section in nitrogen, Å²": 296.2}
{"molecule": "CCCCC(CC)COC(=O)CCCCCCCCC(=O)OCC(CC)CCCC (stereo not given) [Bis(2-ethylhexyl) decanedioate]", "collision cross section in nitrogen, Å²": 224.2}
{"molecule": "CC(C)Oc1ccc(S(=O)(=O)c2ccc(O)cc2)cc1", "collision cross section in nitrogen, Å²": 187.9}

Exercise: Using known records, supply collision cross section in nitrogen for Cc1cccc(C)c1NC(=O)CN1CCCC1=O
Key: 167.3

Exercise: Determine its reported collision cross section in nitrogen: CCCCCCCC/C=C\CCCCCCCC(=O)OC[C@@H](O)[C@H]1OC[C@H](O)[C@H]1O [Sorbitan, mono-(9Z)-9-octadecenoate]
Key: 211.8

Exercise: Read the entry COc1ccc(CCN2CCC(Nc3nc4ccccc4n3Cc3ccc(F)cc3)CC2)cc1 and write its reported collision cross section in nitrogen.
Key: 213.2

Exercise: Quick one: give measured collision cross section in nitrogen for CN(C)P(=O)(N(C)C)N(C)C [Hexamethylphosphoramide]
Key: 152.8

Exercise: Answer with reported collision cross section in nitrogen of CCOC(=O)c1cn2nc(OP(=S)(OCC)OCC)cc2nc1C
Key: 195.9

----------
# experiment: collision cross section in nitrogen (drift tube, single-field); higher = larger gas-phase ion size
# protocol conditions: ion type: [M+Na]; ion source: ESI; ion mode: Positive
Measured collision cross section in nitrogen of individual entries
# value in Å²; strip the unit string

Study these solved cases before continuing.
{"molecule": "CCCCCCCCCCCCCOC(=O)c1ccccc1C(=O)OCCCCCCCCCCCCC [Ditridecyl phthalate (mixture of branched chain isomers)]", "assay endpoint": "collision cross section in nitrogen", "quantitative result": 244.3}
{"molecule": "CCCCN(CCC(=O)OCC)C(C)=O [Ethyl 3-(N-butylacetamido)propionate]", "assay endpoint": "collision cross section in nitrogen", "quantitative result": 162}
{"molecule": "CNC(=C[N+](=O)[O-])NCCSCc1csc(CN(C)C)n1 [Nizatidine]", "assay endpoint": "collision cross section in nitrogen", "quantitative result": 178.1}
{"molecule": "c1coc(CNc2[nH]cnc3ncnc2-3)c1 [Kinetin]", "assay endpoint": "collision cross section in nitrogen", "quantitative result": 159.2}
{"molecule": "CC(COc1ccc(Oc2ccccc2)cc1)Oc1ccccn1 (stereo not given) [Pyriproxyfen]", "assay endpoint": "collision cross section in nitrogen", "quantitative result": 185.4}
{"molecule": "CCNc1nc(NC(C)CC)nc(OC)n1 (stereo not given) [Secbumeton]", "assay endpoint": "collision cross section in nitrogen", "quantitative result": 172.2}

# next molecule below
Exercise: Dear colleague, please send me the reported collision cross section in nitrogen for CCOc1nc(F)cc2nc(S(=O)(=O)Nc3c(Cl)cccc3Cl)nn12 [Diclosulam] when you can.
Key: 194

----------
# experiment: collision cross section in nitrogen (drift tube, single-field); higher = larger gas-phase ion size
# protocol conditions: ion type: [M-H]; ion source: ESI; ion mode: Negative
Listing of recorded collision cross section in nitrogen by entry.
Numeric answer only, unit Å² assumed.

The following molecules have reported results that may help.
{"molecule": "CC(C)(c1ccccc1)c1ccc(O)cc1", "assay endpoint": "collision cross section in nitrogen", "quantitative result": 157.8}
{"molecule": "Cn1cnc([N+](=O)[O-])c1Sc1ncnc2nc[nH]c12", "assay endpoint": "collision cross section in nitrogen", "quantitative result": 155.5}
{"molecule": "CCCCCCCCCC(=O)OCC [Ethyl decanoate]", "assay endpoint": "collision cross section in nitrogen", "quantitative result": 154.6}

As a next step, examine the molecule that follows.
Exercise: Supply recorded collision cross section in nitrogen for Oc1nc2ccccc2s1 here.
Key: 123.7

----------
# experiment: collision cross section in nitrogen (drift tube, single-field); higher = larger gas-phase ion size
# protocol conditions: ion type: [M+H]; ion source: ESI; ion mode: Positive
Counter-ions that a name gives are not always drawn.
Collected collision cross section in nitrogen values appear next to each entry.
Answer format: numeric, Å² implied, no suffix.

{"compound": "CN1CCc2cccc3c2[C@H]1Cc1ccc(O)c(O)c1-3 [Apomorphine hydrochloride]", "collision cross section in nitrogen, Å²": 162.5}
{"compound": "Fc1ccc([C@@]2(Cn3cncn3)O[C@@H]2c2ccccc2Cl)cc1 [Epoxiconazole]", "collision cross section in nitrogen, Å²": 176.6}
{"compound": "O=C1CCCC(=O)C1 [1,3-Cyclohexanedione]", "collision cross section in nitrogen, Å²": 122.6}
{"compound": "Cc1ccccc1N=Nc1ccc(NC(=O)c2ccnn2C)c(C)c1", "collision cross section in nitrogen, Å²": 189.1}
{"compound": "Nc1ccc(-c2ccc(F)cc2)cc1 [4'-Fluoro-4-aminodiphenyl]", "collision cross section in nitrogen, Å²": 156.4}
{"compound": "CC(C)(C#N)Nc1nc(Cl)nc(NC2CC2)n1 [Procyazine]", "collision cross section in nitrogen, Å²": 159}
{"compound": "CCOC(=O)C1=NOC(c2ccccc2)(c2ccccc2)C1 [Ethyl 5,5-diphenyl-2-isoxazoline-3-carboxylate]", "collision cross section in nitrogen, Å²": 169.5}
{"compound": "COc1cc(CNC(=O)CCCC/C=C/C(C)C)ccc1O [Capsaicin]", "collision cross section in nitrogen, Å²": 182}

Exercise: // Input: COc1cc2ncnc(Nc3cccc(Cl)c3)c2cc1OC [N-(3-Chlorophenyl)-6,7-dimethoxyquinazolin-4-amine] . Output its collision cross section in nitrogen only.
Key: 171

Exercise: Look up and report measured collision cross section in nitrogen for this entry: CCCCOCCOCCOC(=O)CCCCC(=O)OCCOCCOCCCC [Bis[2-(2-butoxyethoxy)ethyl] adipate]
Key: 205.4

Exercise: Name the recorded collision cross section in nitrogen of the compound listed here: N#CC(CCc1ccc(Cl)cc1)(Cn1cncn1)c1ccccc1 (stereo unspecified)
Key: 183.1

Exercise: Please report collision cross section in nitrogen for the following compound: CC1=NN(c2ccccc2)C(=O)C1 [1-Phenyl-3-methyl-5-pyrazolone]
Key: 137.7

Exercise: State, in one line, measured collision cross section in nitrogen of C[C@]12C=CC3=C4CCC(=O)C=C4CC[C@H]3[C@@H]1CC[C@@H]2O [17beta-Trenbolone]
Key: 166.4

Exercise: Note collision cross section in nitrogen for the compound shown: O=P1(N(CCCl)CCCl)NCCCO1 (stereo unspecified) [Cyclophosphamide]
Key: 147.7

Exercise: Provide one value: measured collision cross section in nitrogen of CO/C=C(/C(=O)OC)c1ccccc1Oc1cc(Oc2ccccc2C#N)ncn1 [Azoxystrobin]
Key: 195

Exercise: Using the record for CCCOc1ccc(S(=O)(=O)N2CCN(CC)CC2)cc1-c1nc2c(CC)n(Cc3ccccn3)nc2c(=O)[nH]1 , state its measured collision cross section in nitrogen.
Key: 236.5

Exercise: Return the recorded collision cross section in nitrogen value; entry: CCN(CC)c1ccc(C(=O)c2ccccc2C(=O)O)c(O)c1 [2-[4-(Diethylamino)-2-hydroxybenzoyl]benzoic acid]
Key: 177.1

Exercise: Identify collision cross section in nitrogen associated with the compound COc1ccc2nc(N)sc2c1 [6-Methoxy-2-benzothiazolamine]
Key: 136.6

Exercise: Annotate the compound Cc1nc(C)nc(N2C[C@@H](C)N(c3ccnc([C@@H](C)O)n3)[C@@H](C)C2)n1 with its measured collision cross section in nitrogen.
Key: 190.4

Exercise: Read the entry Cc1ccc2ccccc2n1 [2-Methylquinoline] and write its reported collision cross section in nitrogen.
Key: 126.2

Exercise: Output measured collision cross section in nitrogen for this item: c1ccc(N=NNc2ccccc2)cc1 [Diazoaminobenzene]
Key: 147

Exercise: Name the recorded collision cross section in nitrogen of the item CS(=O)(=O)c1ccc(C(=O)C2C(=O)CCCC2=O)c(Cl)c1COCC(F)(F)F [Tembotrione] in your answer.
Key: 189.3

Exercise: For the compound CCOP(=S)(OCC)Oc1ccc(S(C)=O)cc1 (stereo unspecified) [Fensulfothion] , give its measured collision cross section in nitrogen value.
Key: 174.5

Exercise: Name the recorded collision cross section in nitrogen of the item CCCCCCCCCCCC(=O)N(CC)CC [N,N-Diethyldodecanamide] in your answer.
Key: 179.1

Exercise: Give recorded collision cross section in nitrogen. CNC(=O)Oc1ccc2c(c1)[C@]1(C)CCN(C)[C@@H]1N2C [Physostigmine]
Key: 169.8

Exercise: Identify measured collision cross section in nitrogen corresponding to CCCCCCCCOC(=O)c1ccc(C(=O)OCCCCCCCC)c(C(=O)OCCCCCCCC)c1 [Tri-n-octyl trimellitate]
Key: 259
